Test system: SJSA-1 (Osteosarcoma)
Assay: combination Emax (second highest fraction inhibited in the dose matrix, 72 h); higher = more inhibition; extreme values may be limits of the assay

compound	combination Emax
CCc1c2c(nc3ccc(O)cc13)-c1cc3c(c(=O)n1C2)COC(=O)[C@]3(O)CC [SN-38] + CN(C)CCCOc1ccc(-c2ccc3ncc4c(c3c2)n(C2CCOCC2)c(=O)n4C)cn1 [AZD0156] (first compound max 0.3 µM, 7x7, partner max 1 µM)	0.673
CN(CCO)CC[C@H](CSc1ccccc1)Nc1ccc(S(=O)(=O)NC(=O)c2ccc(N3CCC([C@@H](O)c4ccccc4-c4ccc(Cl)cc4)CC3)cc2)cc1S(=O)(=O)C(F)(F)F [AZD4320] + Cc1cc2ncnn2cc1Nc1ncc2c(n1)n(C1CCOCC1)c(=O)n2C [AZD7648] (first compound max 1 µM, 7x7, partner max 10 µM)	0.283
COc1nnc2ccc(N3CCC(c4ccc(OCCN5CCN(C)C(=O)[C@H]5C)cc4)CC3)nn12 [AZD5153] + CC1(C)CCC(CN2CCN(c3ccc(C(=O)NS(=O)(=O)c4ccc(NCC5CCOCC5)c([N+](=O)[O-])c4)c(Oc4cnc5[nH]ccc5c4)c3)CC2)=C(c2ccc(Cl)cc2)C1 [Venetoclax] (first compound max 1 µM, 7x7, partner max 1 µM)	0.546
CC(=O)c1c(C)c2cnc(Nc3ccc(N4CCNCC4)cn3)nc2n(C2CCCC2)c1=O [Palbociclib] + Cn1cnc2c(F)c(Nc3ccc(Br)cc3Cl)c(C(=O)NOCCO)cc21 [Selumetinib] (first compound max 10 µM, 7x7, partner max 10 µM)	0.424
O=C(c1cc(Cc2n[nH]c(=O)c3ccccc23)ccc1F)N1CCN(C(=O)C2CC2)CC1 [Olaparib] + COc1nnc2ccc(N3CCC(c4ccc(OCCN5CCN(C)C(=O)[C@H]5C)cc4)CC3)nn12 [AZD5153] (first compound max 10 µM, 7x7, partner max 1 µM)	0.539
CN(CCO)CC[C@H](CSc1ccccc1)Nc1ccc(S(=O)(=O)NC(=O)c2ccc(N3CCC([C@@H](O)c4ccccc4-c4ccc(Cl)cc4)CC3)cc2)cc1S(=O)(=O)C(F)(F)F [AZD4320] + C=CCn1c(=O)c2cnc(Nc3ccc(N4CCN(C)CC4)cc3)nc2n1-c1cccc(C(C)(C)O)n1 [AZD1775] (first compound max 1 µM, partner max 1 µM)	0.392
CC1(C)CCC(CN2CCN(c3ccc(C(=O)NS(=O)(=O)c4ccc(NCC5CCOCC5)c([N+](=O)[O-])c4)c(Oc4cnc5[nH]ccc5c4)c3)CC2)=C(c2ccc(Cl)cc2)C1 [Venetoclax] + CCN(CCO)CCCOc1ccc2c(Nc3cc(CC(=O)Nc4cccc(F)c4)[nH]n3)ncnc2c1 [AZD2811] (first compound max 1 µM, 7x7, partner max 1 µM)	0.222
